Reported melting point values are given for each entry in this list.
attribute-measured: melting point (°C)

mol-smiles | observed-result
Fc1ccc(-n2nccc2-c2ccc3ncn(-c4ccc(Cl)cc4F)c3c2)cc1 | 153
Fc1ccc(-n2cnc3ccc(-c4cncn4-c4ccc(Cl)cc4)cc32)cc1 | 254
Cc1ccc(-n2nccc2-c2ccc3ncn(-c4ccc(C)cc4)c3c2)cc1 | 165
Fc1ccc(-n2nccc2-c2ccc3ncn(-c4ccc(C(F)(F)F)cc4)c3c2)cc1 | 204
Fc1ccc(-n2cnc3ccc(-c4cncn4-c4ccccc4)cc32)cc1 | 216
Fc1ccc(-n2cnc3ccc(-c4ccnn4-c4ccc(C(F)(F)F)cc4)cc32)c(F)c1 | 129
Fc1ccc(-n2nccc2-c2ccc3ncn(-c4ccc(F)cc4F)c3c2)cc1 | 152
Clc1ccc(-n2nccc2-c2ccc3ncn(-c4ccncc4)c3c2)cc1 | 203
Fc1ccc(-n2nccc2-c2ccc3ncn(-c4ccc(F)cc4)c3c2)cc1 | 173
FC(F)(F)c1ccc(-n2cnc3ccc(-c4ccnn4-c4ccc(Cl)cc4)cc32)cc1 | 196
Cc1ccc(-n2cnc3ccc(-c4ccnn4-c4ccccc4)cc32)cc1 | 146
Fc1ccc(-n2nccc2-c2ccc3ncn(-c4ccccc4)c3c2)cc1 | 201
COc1ccc(-n2cnc3ccc(-c4ccnn4-c4ccc(Cl)cc4)cc32)cc1 | 163
CS(=O)(=O)c1ccc(-n2cnc3ccc(-c4ccnn4-c4ccc(F)cc4)cc32)cc1 | 247
Fc1cc(Cl)ccc1-n1cnc2ccc(-c3ccnn3-c3ccc(Cl)cc3)cc21 | 158
Fc1ccc(-n2cncc2-c2ccc3ncn(-c4ccc(F)cc4)c3c2)cc1 | 247
c1ccc(-n2nccc2-c2ccc3ncn(-c4ccccc4)c3c2)cc1 | 194
COc1ccc(-n2cnc3ccc(-c4ccnn4-c4ccc(F)cc4)cc32)cc1 | 143
Cc1ccc(-n2cnc3ccc(-c4ccnn4-c4ccc(F)cc4)cc32)cc1 | 149

* * *

A collection of compounds and their measured EC150
- System: human embryonic stem cell derived neural stem cells (NSCs)
- assay-text: Neural stem cell proliferation assay (neurogenesis assay, ATP/CellTiterGlo)
- Type: cell-based
- measurement-parameters: 96 h, compound concentration at which 150% activity of control (100%) is reached, NSC proliferation by ATP level after 4 days incubation, dose response 8 μM to 8 nM

mol-smiles | EC150
Fc1cc(Cl)ccc1-n1cnc2ccc(-c3ccnn3-c3ccc(Cl)cc3)cc21 | 0.17 µM
Fc1ccc(-n2cncc2-c2ccc3ncn(-c4ccc(F)cc4)c3c2)cc1 | 0.11 µM
Fc1ccc(-n2cnc3ccc(-c4ccnn4-c4ccc(Cl)cc4)cc32)c(F)c1 | 0.19 µM
Clc1ccc(-n2nccc2-c2ccc3ncn(-c4ccc(Cl)cc4)c3c2)cc1 | 0.082 µM

* * *

- Test system: human embryonic stem cell derived neural stem cells (NSCs)
- assay-text: Neural stem cell proliferation assay (neurogenesis assay, ATP/CellTiterGlo)
- Type: cell-based
- measurement-parameters: 96 h, compound concentration at which 150% activity of control (100%) is reached, NSC proliferation by ATP level after 4 days incubation, dose response 8 μM to 8 nM
Some compounds, each annotated with its measured EC150.
attribute-measured: EC150

mol-smiles | attribute-measured | observed-result
COc1ccc(-n2cnc3ccc(-c4ccnn4-c4ccc(Cl)cc4)cc32)cc1 | EC150 | 0.056 µM
Fc1ccc(-n2nccc2-c2ccc3ncn(-c4ccc(Cl)cc4)c3c2)cc1 | EC150 | 0.09 µM
Cc1ccc(-n2cnc3ccc(-c4ccnn4-c4ccccc4)cc32)cc1 | EC150 | 0.0165 µM
Fc1ccc(-n2cnc3ccc(-c4ccnn4-c4ccc(Cl)cc4)cc32)cc1 | EC150 | 0.11 µM
Fc1ccc(-n2cnc3ccc(-c4cncn4-c4ccccc4)cc32)cc1 | EC150 | 0.07 µM
CS(=O)(=O)c1ccc(-n2cnc3ccc(-c4ccnn4-c4ccc(Cl)cc4)cc32)cc1 | EC150 | 0.16 µM
Cc1ccc(-n2nccc2-c2ccc3ncn(-c4ccc(F)cc4)c3c2)cc1 | EC150 | 0.009 µM
Fc1ccc(-n2nccc2-c2ccc3ncn(-c4ccc(C(F)(F)F)cc4)c3c2)cc1 | EC150 | 0.41 µM
Fc1ccc(-n2cnc3ccc(-c4ccnn4-c4ccccc4)cc32)cc1 | EC150 | 0.031 µM
